method.summary: Long-term/accelerated stability of crystal forms
Assay type: physicochemical
test.settings: 40 °C/75% RH, 1 month, sealed in aluminum foil bag
For each record, write down the corresponding Purity%.
Field: numeric (%). Do not append units.

Give Purity% for the following compound: C[C@H]1COc2c(-c3nc(N[C@@H]4CCOC[C@H]4O)ncc3Cl)cc(F)c3nc(C(C)(C)O)n1c23 [Crystal form D]
99.9

In one line, give reported Purity% of the entry C[C@H]1COc2c(-c3nc(N[C@@H]4CCOC[C@H]4O)ncc3Cl)cc(F)c3nc(C(C)(C)O)n1c23 [Free-state amorphous form] .
99.0

Please give measured Purity% of the following entry: C[C@H]1COc2c(-c3nc(N[C@@H]4CCOC[C@H]4O)ncc3Cl)cc(F)c3nc(C(C)(C)O)n1c23 [Crystal form G]
99.9

Give the reported Purity% for this compound. C[C@H]1COc2c(-c3nc(N[C@@H]4CCOC[C@H]4O)ncc3Cl)cc(F)c3nc(C(C)(C)O)n1c23 [Crystal form F]
99.9

Item C[C@H]1COc2c(-c3nc(N[C@@H]4CCOC[C@H]4O)ncc3Cl)cc(F)c3nc(C(C)(C)O)n1c23 [Crystal form E] : provide Purity%
99.9

Give the reported Purity% for this compound. C[C@H]1COc2c(-c3nc(N[C@@H]4CCOC[C@H]4O)ncc3Cl)cc(F)c3nc(C(C)(C)O)n1c23 [Crystal form H]
99.95

###

method.summary: Long-term/accelerated stability of crystal forms
Assay type: physicochemical
test.settings: 25 °C/60% RH, after standing up to 6 months
observable: Crystal form

compound	result
C[C@H]1COc2c(-c3nc(N[C@@H]4CCOC[C@H]4O)ncc3Cl)cc(F)c3nc(C(C)(C)O)n1c23 [Free-state amorphous form]	No change
C[C@H]1COc2c(-c3nc(N[C@@H]4CCOC[C@H]4O)ncc3Cl)cc(F)c3nc(C(C)(C)O)n1c23 [Crystal form F]	No change
C[C@H]1COc2c(-c3nc(N[C@@H]4CCOC[C@H]4O)ncc3Cl)cc(F)c3nc(C(C)(C)O)n1c23 [Crystal form D]	No change
C[C@H]1COc2c(-c3nc(N[C@@H]4CCOC[C@H]4O)ncc3Cl)cc(F)c3nc(C(C)(C)O)n1c23 [Crystal form G]	No change

For the compound C[C@H]1COc2c(-c3nc(N[C@@H]4CCOC[C@H]4O)ncc3Cl)cc(F)c3nc(C(C)(C)O)n1c23 [Crystal form E] , give its measured Crystal form value.
No change

###

method.summary: Long-term/accelerated stability of crystal forms
Type: physicochemical
test.settings: 40 °C/75% RH, 3 months, sealed in aluminum foil bag
So I've got a bunch of compounds here, and I need their Purity% values.

Quickly give me recorded Purity% for C[C@H]1COc2c(-c3nc(N[C@@H]4CCOC[C@H]4O)ncc3Cl)cc(F)c3nc(C(C)(C)O)n1c23 [Crystal form G]
99.9%

Consider the compound C[C@H]1COc2c(-c3nc(N[C@@H]4CCOC[C@H]4O)ncc3Cl)cc(F)c3nc(C(C)(C)O)n1c23 [Crystal form E] . State its measured Purity%.
99.9%

Provide measured Purity% value, entry: C[C@H]1COc2c(-c3nc(N[C@@H]4CCOC[C@H]4O)ncc3Cl)cc(F)c3nc(C(C)(C)O)n1c23 [Crystal form H]
99.95%

Note down Purity% recorded for C[C@H]1COc2c(-c3nc(N[C@@H]4CCOC[C@H]4O)ncc3Cl)cc(F)c3nc(C(C)(C)O)n1c23 [Crystal form F]
99.9%

# return recorded Purity% for entry C[C@H]1COc2c(-c3nc(N[C@@H]4CCOC[C@H]4O)ncc3Cl)cc(F)c3nc(C(C)(C)O)n1c23 [Crystal form D]
99.9%

Ref: patent EP4567040A1
